The measured values listed here are drawn from patent US20100003217A1.

Test system: rat primary hepatocytes
Test: Metabolic disposition of [^14C]-Compound 1 and [^14C]-2′-C-methyl guanosine in rat primary hepatocytes (incubation medium, cellular extracts, nucleotide levels)
Format: in vitro ADME, Sprague Dawley rat
Conditions: rat hepatocytes Rs458; 1 μM [^14C]-2′-C-methyl guanosine; 24 h
attribute_measured: Major metabolites observed in cellular extracts (% of total radioactivity)

compound	data_value
C[C@@]1(O)[C@H](O)[C@@H](CO)O[C@H]1n1cnc2c(=O)[nH]c(N)nc21 [2′-C-methyl guanosine, 9-(2-C-methyl-β-D-ribofuranosyl)guanine, reference compound]	49.2 % of total radioactivity

Go through the list and state Major metabolites observed in cellular extracts (% of total radioactivity) for each entry.
1. C[C@@]1(O)[C@H](O)[C@@H](COP(=O)(O)OP(=O)(O)OP(=O)(O)O)O[C@H]1n1cnc2c(=O)[nH]c(N)nc21 [Compound 7]
2. C[C@@]1(O)[C@H](O)[C@@H](COP(=O)(O)O)O[C@H]1n1cnc2c(=O)[nH]c(N)nc21 [Compound 5]
3. C[C@@]1(O)[C@H](O)[C@@H](COP(=O)(O)OP(=O)(O)O)O[C@H]1n1cnc2c(=O)[nH]c(N)nc21 [Compound 6]

["34.1 % of total radioactivity", "6.83 % of total radioactivity", "9.88 % of total radioactivity"]
